Sourced from paper PMC10977697

# System name: T1, Notch2Long (Notch2 EGF6-EGF12) (human, UniProt Q04721 219-418, biotin on the N-terminal Avi tag (enzymatic))
# T1 construct: also called N2L protein; hNotch2; not shown: Avi tag, N-terminal, kept
# T1 sequence (looked up): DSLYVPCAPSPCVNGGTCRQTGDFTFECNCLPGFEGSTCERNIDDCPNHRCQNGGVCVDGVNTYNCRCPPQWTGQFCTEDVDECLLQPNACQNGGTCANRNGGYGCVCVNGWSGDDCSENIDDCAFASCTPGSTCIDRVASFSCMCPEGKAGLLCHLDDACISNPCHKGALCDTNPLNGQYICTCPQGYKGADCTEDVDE
# Assay name: ELISA
# Cond: one partner purified
Collected s/n Ratio values appear next to each entry.
Just the number, please, no unit attached.

Please review the entries below; each comes with its answer.
• GCIRSHVWCKQDSDCEAGCICEVWVKCG (designed binder) [N2L.EET31.43.64 displayed on M13 phage (p3)] = 8.8
• GCIKSHLWCPGKERCLAGCICEIWIQCG (designed binder) [N2L.EET31.32.48 displayed on M13 phage (p3)] = 7.2
• GCIKSHLWCPSDERCLAGCVCEVWIQCG (designed binder, also called N2L.31.L2.32) [N2L.EET31.32 displayed on M13 phage (p3)] = 3.7
• GCVRSHVWCPSDERCLAGCVCEIWIRCG (designed binder) [N2L.EET31.32.85 displayed on M13 phage (p3)] = 4.3
• GCIRSHVWCKQDSDCEAGCICEIWIQCG (designed binder) [N2L.EET31.43.43 displayed on M13 phage (p3)] = 10.2

// GCIKSHLWCPHGGRCEAGCICEVWIQCG (designed binder) [N2L.EET31.43.30 displayed on M13 phage (p3)] : s/n Ratio value = 10.7

# binder GCVRSHLWCKQDSDCEAGCICEVWIKCG (designed binder) [N2L.EET31.43.73 displayed on M13 phage (p3)] ; its s/n Ratio = 11
